test system: K562; test: Antiproliferative activity against human K562 cells by MTS assay; format: functional, cell-based
pIC50: −log10 of the molar value.
Endpoint name: pIC50

These recorded examples may help you get a feel for the data.
Cc1sc(Nc2cccc(C(=O)NCC(=O)O)c2)nc1-c1ccc(O)cc1    4.14
CC(=O)[C@H](Cc1ccccc1)NC(=O)c1cccc(Nc2nc(-c3ccc(C)cc3)c(C)s2)c1    4.08
Cc1sc(Nc2cccc(C(=O)NCC(=O)O)c2)nc1-c1ccc(C(F)(F)F)cc1    4.46

a. CC(=O)[C@H](Cc1ccccc1)NC(=O)c1cccc(Nc2nc(-c3ccccc3)c(C)s2)c1
b. CC(=O)[C@H](Cc1ccccc1)NC(=O)c1cccc(Nc2nc(-c3ccc(O)cc3)c(C)s2)c1
**Query** Consider a and b . Which of these has its pIC50 at a higher number? Field: selected label. Fill in the label of the entry you choose.
**Result** b

---

test system: K562; experiment: Antiproliferative activity against human K562 cells by MTS assay; assay type: functional, cell-based
pIC50: −log10 of the molar value.
Endpoint name: pIC50

a. CC(=O)[C@H](Cc1ccccc1)NC(=O)c1cccc(Nc2nc(-c3ccc(F)cc3)c(C)s2)c1
b. Cc1sc(Nc2cccc(C(=O)N[C@@H](Cc3ccccc3)C(=O)O)c2)nc1-c1ccc(F)cc1
**Query** Consider a and b . Which of these has its pIC50 at a higher number? Field: selected label. Fill in the label of the entry you choose.
**Result** a

---

system: BaF3; assay: Antiproliferative activity against mouse BaF3 cells harbouring BCR-ABL T315I mutant by MTS assay; type: cell-based
pIC50: −log10 of the molar value.
Endpoint name: pIC50

CC(=O)[C@H](Cc1ccccc1)NC(=O)c1cccc(Nc2nc(-c3ccc(C(F)(F)F)cc3)c(C)s2)c1    4.70

P. CC(=O)[C@H](Cc1ccccc1)NC(=O)c1cccc(Nc2nc(-c3ccc(F)cc3)c(C)s2)c1
Q. CC(=O)[C@H](Cc1ccccc1)NC(=O)c1cccc(Nc2nc(-c3ccc(O)cc3)c(C)s2)c1
**Query** Which entry shows the lesser value of pIC50 here, P or Q ? Field: selected label. Fill in the label of the entry you choose.
**Result** Q

---

test system: K562; test: Antiproliferative activity against human K562 cells by MTS assay; format: functional, cell-based
Endpoint name: IC50 (µM)

These recorded examples may help you get a feel for the data.
CC(=O)[C@H](Cc1ccccc1)NC(=O)c1cccc(Nc2nc(-c3ccc(C(F)(F)F)cc3)c(C)s2)c1    28.7
Cc1sc(Nc2cccc(C(=O)NCC(=O)O)c2)nc1-c1ccc(F)cc1    87.8
CCc1sc(Nc2cccc(C(=O)NCC(C)=O)c2)nc1-c1ccccc1    61.7
CC(=O)[C@H](Cc1ccccc1)NC(=O)c1cccc(Nc2nc(-c3ccc(Cl)cc3)c(C)s2)c1    51.4
Cc1sc(Nc2cccc(C(=O)NCC(=O)O)c2)nc1-c1ccc(Cl)cc1    60.5

a. CC(=O)CNC(=O)c1cccc(Nc2nc(-c3ccc(C(F)(F)F)cc3)c(C)s2)c1
b. Cc1sc(Nc2cccc(C(=O)N[C@@H](Cc3ccccc3)C(=O)O)c2)nc1-c1ccc(O)cc1
c. Cc1ccc(NC(=O)c2ccc(CN3CCN(C)CC3)cc2)cc1Nc1nccc(-c2cccnc2)n1
**Query** Rank items: key IC50, increasing. Answer with the labels in sequence, matching the requested order.
**Result** c, a, b
(c: 4.63 µM, a: 40.9 µM, b: 68.9 µM)

1. Cc1sc(Nc2cccc(C(=O)N[C@@H](Cc3ccccc3)C(=O)O)c2)nc1-c1ccc(Cl)cc1
2. CCc1sc(Nc2cccc(C(=O)N[C@@H](Cc3ccccc3)C(=O)O)c2)nc1-c1ccccc1
**Query** Consider 1 and 2 . Which of these has its IC50 at a higher number? Field: selected label. Fill in the label of the entry you choose.
**Result** 2

Source of measurements: ChEMBL document CHEMBL4834451
